TESTED_SYSTEM: HLA-A*80:01
ASSAY_OVERVIEW: IEDB peptide-MHC binding, purified MHC/competitive/fluorescence; filed as Kd, often an IC50 or EC50 that approximates it; bounds were set here for any values at or beyond the usual limits of such assays
STUDY_CONDITIONS: source organism: Escherichia coli O157:H7 str. Sakai
MEASURED_PROPERTY: Kd

[[record]]
sequence_text = "HQIWLALRY"
meas_value = "7.2 nM"


----------
TESTED_SYSTEM: HLA-A*01:01
ASSAY_OVERVIEW: IEDB peptide-MHC binding, purified MHC/competitive/radioactivity; filed as Kd, often an IC50 or EC50 that approximates it; bounds were set here for any values at or beyond the usual limits of such assays
STUDY_CONDITIONS: source organism: Dengue virus 4 Philippines/H241/1956
pKd: −log10 of the molar value.
MEASURED_PROPERTY: pKd

[[record]]
sequence_text = "ASEAVNDSRF"
tested_system = "HLA-A*01:01"
bound_sign = "≤"
meas_value = 4.50

[[record]]
sequence_text = "LSSTRVPNY"
tested_system = "HLA-A*01:01"
bound_sign = "="
meas_value = 5.69

[[record]]
sequence_text = "TSETFSMGLL"
tested_system = "HLA-A*01:01"
bound_sign = "="
meas_value = 6.62

[[record]]
sequence_text = "KTKTDFGFY"
tested_system = "HLA-A*01:01"
bound_sign = "="
meas_value = 5.20


----------
TESTED_SYSTEM: HLA-A*26:03
ASSAY_OVERVIEW: IEDB peptide-MHC binding, purified MHC/direct/fluorescence; filed as Kd, often an IC50 or EC50 that approximates it; bounds were set here for any values at or beyond the usual limits of such assays
STUDY_CONDITIONS: source organism: Variola virus
pKd: −log10 of the molar value.
Reported pKd is given for each of the following sequences.
MEASURED_PROPERTY: pKd

[[record]]
sequence_text = "ILQDRIRMY"
meas_value = "≤ 4.70"

[[record]]
sequence_text = "FYLFTFTIY"
meas_value = "≤ 4.70"


----------
TESTED_SYSTEM: HLA-B*57:01
ASSAY_OVERVIEW: IEDB peptide-MHC binding, purified MHC/competitive/fluorescence; filed as Kd, often an IC50 or EC50 that approximates it; bounds were set here for any values at or beyond the usual limits of such assays
STUDY_CONDITIONS: source organism: Yersinia mollaretii ATCC 43969
MEASURED_PROPERTY: Kd

[[record]]
sequence_text = "DEQEFFYSQ"
measured_property = "Kd"
meas_value = "≥ 20 µM"


----------
TESTED_SYSTEM: HLA-A*01:01
ASSAY_OVERVIEW: IEDB peptide-MHC binding, purified MHC/direct/fluorescence; filed as Kd, often an IC50 or EC50 that approximates it; bounds were set here for any values at or beyond the usual limits of such assays
STUDY_CONDITIONS: source organism: Lake Victoria marburgvirus - Popp
pKd: −log10 of the molar value.
MEASURED_PROPERTY: pKd

[[record]]
sequence_text = "KNYPASLHK"
measured_property = "pKd"
meas_value = "≤ 4.70"


----------
TESTED_SYSTEM: HLA-A*69:01
ASSAY_OVERVIEW: IEDB peptide-MHC binding, purified MHC/competitive/fluorescence; filed as Kd, often an IC50 or EC50 that approximates it; bounds were set here for any values at or beyond the usual limits of such assays
STUDY_CONDITIONS: source organism: Reston ebolavirus
pKd: −log10 of the molar value.
MEASURED_PROPERTY: pKd

[[record]]
sequence_text = "QAFEAGIDF"
measured_property = "pKd"
meas_value = "≤ 4.70"

